target: proMMP13(1-268) (SEQ ID NO:7) (Homo sapiens, UniProt P45452); construct: 6xHis (C); assay: ThermoFluor binding assay with proMMP13(1-268)
Experimental Readout: pKd
Bear in mind: pKd is minus log10 of a mol/L concentration; give just that figure.

Below, 8 molecules whose answers are already recorded.
CC(C)Oc1ccc(C(N)=O)cc1Nc1nc2c(s1)CCc1cnccc1-2 4.85
CC(C)Oc1ccc(C(N)=O)cc1Nc1nc2c(ccc3ncccc32)s1 5.05
CCn1c(C)nc2ccc3sc(Nc4cc(C(N)=O)ccc4OC(C)C)nc3c21 6.37
Cc1nc2c(ccc3sc(Nc4cc(C(=O)O)ccc4OC(C)C)nc32)[nH]1 5.72
CCn1c(C)nc2c3nc(Nc4cc(C(N)=O)ccc4OC(C)C)sc3ccc21 5.40
CC(=O)Nc1nc2c(ccc3sc(Nc4cc(C(N)=O)ccc4OC(C)C)nc32)[nH]1 5.47
CC(C)Oc1ccc(C(N)=O)cc1Nc1nc2c(ccc3cnccc32)s1 5.57
CC(C)Oc1ccc(C(N)=O)cc1Nc1nc2c(ccc3ccncc32)s1 5.17

Consider now this further molecule.
Reported pKd ( COc1c(Nc2nc3c(ccc4c3ncn4C)s2)cc(C(N)=O)c(F)c1F ) = 5.00

====

Target: proMMP9(20-445;ΔFnII) (SEQ ID NO:6) (Homo sapiens, UniProt P14780, DEL216-390)
Construct: start methionine (N)
Sequence (P14780 with tags, fused parts or gaps DEL216-390): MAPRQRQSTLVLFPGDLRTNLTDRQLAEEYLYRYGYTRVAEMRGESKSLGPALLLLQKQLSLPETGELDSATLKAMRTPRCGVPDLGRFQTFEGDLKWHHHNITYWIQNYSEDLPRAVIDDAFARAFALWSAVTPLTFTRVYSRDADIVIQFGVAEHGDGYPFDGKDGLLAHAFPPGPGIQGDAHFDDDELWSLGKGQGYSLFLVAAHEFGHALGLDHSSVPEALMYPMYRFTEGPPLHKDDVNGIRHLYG
Assay: ThermoFluor binding assay with proMMP9(20-445;ΔFnII)
Experimental Readout: pKd
Bear in mind: pKd is minus log10 of a mol/L concentration; give just that figure.

Below, 4 molecules whose answers are already recorded.
CC(C)Oc1ccc(C(N)=O)cc1Nc1nc2c(ccc3nc(N)sc32)s1 6.49
COc1ccc(Nc2nc3c(ccc4c3ncn4C)s2)c(OC)c1 5.00
CNS(=O)(=O)c1ccc(OC)c(Nc2nc3c(ccc4c3ncn4C)s2)c1 5.82
COc1ccccc1Nc1nc2c(ccc3nc(N)sc32)s1 5.66

Reported pKd ( COc1cc(C)c(C(N)=O)cc1Nc1nc2c(ccc3c2ncn3C)s1 ) = 6.00

Reported pKd ( Cc1nc2c3nc(Nc4cc(C(N)=O)ccc4OC(C)C)sc3ccc2n1C ) = 6.89

====

target: full-length proMMP9(1-707) activation by catalytic MMP3 (Homo sapiens, UniProt P14780, R574P); construct: MMP3: E. coli; test: proMMP9/MMP3 P126 Activation Assay
Experimental Readout: log10(IC50) (log10 of the value in nM)
On a log10 scale: recorded IC50, unit nM.

Below, 8 compounds whose answers are already recorded.
Cn1cnc2ccc3sc(Nc4cc(S(N)(=O)=O)ccc4OC(F)(F)F)nc3c21 2.83
COc1ccc(S(C)(=O)=O)cc1Nc1nc2c(ccc3[nH]ncc32)s1 2.41
CCn1c(C)nc2ccc3sc(Nc4cc(C(N)=O)ccc4OC(C)C)nc3c21 1.72
COc1ccc(C#N)cc1Nc1nc2c(ccc3ocnc32)s1 2.88
COc1ccccc1Nc1nc2c(ccc3[nH]c(NC(C)=O)nc32)s1 2.95
COc1ccc(-c2cn[nH]c2)cc1Nc1nc2c(ccc3c2ncn3C)s1 2.49
Cc1nc2ccc3sc(Nc4cc(C(=O)O)ccc4OC(C)C)nc3c2s1 2.58
CC(C)Oc1ccc(C(N)=O)cc1Nc1nc2c(ccc3[nH]nnc32)s1 2.78

Consider now this further compound.
Reported log10(IC50) ( COc1ccc(S(N)(=O)=O)cc1Nc1nc2c(ccc3nc(C)n(C)c32)s1 ) = 2.91

====

Reported pKd is given for each of the following compounds.
biological target: proMMP9(20-445;ΔFnII) (SEQ ID NO:6) (Homo sapiens, UniProt P14780, DEL216-390); construct: start methionine (N); assay: ThermoFluor binding assay with proMMP9(20-445;ΔFnII)
Bear in mind: pKd is minus log10 of a mol/L concentration; give just that figure.

COc1ccc(Cl)cc1Nc1nc2c(ccc3c2ncn3C)s1 6.08
CC(C)Oc1ccc(C(N)=O)cc1Nc1nc2c(ccc3nc(C(=O)N4CCN(C)CC4)[nH]c32)s1 6.07
Cc1nc2ccc3sc(Nc4cc(S(C)(=O)=O)ccc4OC(C)C)nc3c2n1CC(F)(F)F 5.60
COc1ccc(F)cc1Nc1nc2c(ccc3cnccc32)s1 4.70
CCn1c(C)nc2ccc3sc(Nc4cc(C(N)=O)ccc4OC(C)C)nc3c21 7.26

Reported pKd ( Cn1ncc2c3nc(Nc4cc(C(N)=O)ccc4OC(F)(F)F)sc3ccc21 ) = 6.85

Reported pKd ( CCn1cnc2ccc3sc(Nc4cc(C(N)=O)ccc4OC(C)C)nc3c21 ) = 7.07

====

Reported IC50 is given for each of the following compounds.
biological target: full-length proMMP9(1-707) activation by catalytic MMP3 (Homo sapiens, UniProt P14780, R574P); construct: MMP3: E. coli; test: proMMP9/MMP3 P126 Activation Assay
Numbers only; they are read as µM.

Below, 4 compounds whose answers are already recorded.
CCn1c(C)nc2ccc3sc(Nc4ccccc4OC)nc3c21 0.48
COc1ccc(S(C)(=O)=O)cc1Nc1nc2c(ccc3nc(C)n(CC(F)(F)F)c32)s1 0.56
COc1ccccc1Nc1nc2c(s1)CCCc1nc(N)sc1-2 1.1
Cc1nc2ccc3sc(Nc4cc(F)ccc4OC(C)C)nc3c2n1CC(F)(F)F 1.3

Reported IC50 ( CC(C)Oc1ccc(C(N)=O)cc1Nc1nc2c(ccc3[nH]c(CO)nc32)s1 ) = 0.5

====

biological target: full-length proMMP9(1-707) activation by catalytic MMP3 (Homo sapiens, UniProt P14780, R574P); construct: MMP3: E. coli; assay: proMMP9/MMP3 P126 Activation Assay
pIC50: −log10 of the molar value.
# if value of pIC50 reaches 6, tag Yes; if it stays below, tag No

Compound	Category
CCOP(=O)(OCC)c1ccc(OC)c(Nc2nc3c(ccc4c3ncn4C)s2)c1 [Example 66]	No
COc1ccc(S(C)(=O)=O)cc1Nc1nc2c(ccc3ncn(C)c32)s1 [Example 135]	Yes
CC(C)Oc1ccncc1Nc1nc2c(ccc3c2ncn3C)s1 [Example 157]	Yes

For this compound, is measured pIC50 6 or higher? CC(C)Cc1ccc(C(N)=O)cc1Nc1nc2c(ccc3c2ncn3C)s1 [Example 88]
No

For this compound, is measured pIC50 6 or higher? Cn1cnc2c3nc(Nc4ccc(C#N)cc4OC(F)(F)F)sc3ccc21 [Example 86]
Yes

For this compound, is measured pIC50 6 or higher? Cc1nc2c(ccc3sc(Nc4cc(C(N)=O)ccc4OC(C)C)nc32)[nH]1 [Example 19]
Yes

====

Molecular target: proMMP9(20-445;ΔFnII) (SEQ ID NO:6) (Homo sapiens, UniProt P14780, DEL216-390)
Construct: start methionine (N); made in house; host or cells: E. coli BL21(DE3) RIL
Sequence (P14780 with tags, fused parts or gaps DEL216-390): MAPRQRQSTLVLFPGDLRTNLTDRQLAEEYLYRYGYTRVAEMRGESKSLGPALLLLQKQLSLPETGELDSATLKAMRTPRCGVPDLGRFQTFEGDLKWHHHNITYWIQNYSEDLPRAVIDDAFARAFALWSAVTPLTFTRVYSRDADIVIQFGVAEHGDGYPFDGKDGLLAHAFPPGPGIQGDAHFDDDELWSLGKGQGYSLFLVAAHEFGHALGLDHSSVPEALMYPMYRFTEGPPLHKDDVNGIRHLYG
Assay: ThermoFluor binding assay with proMMP9(20-445;ΔFnII)
pKd: −log10 of the molar value.
# if value of pKd reaches 5, tag 1; if it stays below, tag 0

Here's what some known entries look like.
COc1ccc(OC)c(Nc2nc3c(ccc4c3ncn4C)s2)c1 1
COc1ccccc1Nc1nc2c(ccc3c2ncn3C)s1 1
CCCn1ncc2c3nc(Nc4cc(S(C)(=O)=O)ccc4OC)sc3ccc21 1
CC(C)Oc1ccc(C(N)=O)cc1Nc1nc2c(ccc3[nH]c(=O)[nH]c32)s1 1
COc1c(Nc2nc3c(ccc4c3ncn4C)s2)cc(C(N)=O)cc1C(F)(F)F 1
COc1c(Nc2nc3c(ccc4c3ncn4C)s2)cc(C(N)=O)c(F)c1F 0
Cn1cnc2c3nc(Nc4ccccc4OCC(F)(F)F)sc3ccc21 0
COc1ccc(S(=O)(=O)N2CCCC2)cc1Nc1nc2c(ccc3c2ncn3C)s1 1

Proceed to the following item.
For this compound, is measured pKd 5 or higher? CC(C)Oc1ccc(F)cc1Nc1nc2c(ccc3c2ncn3C)s1
1
